A collection of compounds and their measured pEC50
- measured-on: Neuropeptide Y receptor type 4 (Homo sapiens, UniProt P50391)
- Sequence (P50391 whole entry): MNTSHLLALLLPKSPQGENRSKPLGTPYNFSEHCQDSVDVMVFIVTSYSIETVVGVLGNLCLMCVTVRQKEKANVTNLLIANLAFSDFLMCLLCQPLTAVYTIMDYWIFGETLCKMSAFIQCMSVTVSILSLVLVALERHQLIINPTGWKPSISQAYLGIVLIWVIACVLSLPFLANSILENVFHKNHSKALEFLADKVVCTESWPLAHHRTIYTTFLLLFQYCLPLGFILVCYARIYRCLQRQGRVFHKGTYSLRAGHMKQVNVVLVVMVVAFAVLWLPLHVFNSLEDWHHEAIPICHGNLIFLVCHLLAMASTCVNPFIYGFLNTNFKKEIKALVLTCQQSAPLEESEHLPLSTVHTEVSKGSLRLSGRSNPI
- run-description: Agonist activity at human Y4R expressed in HEK293T cells incubated for 60 mins by cAMP CAMYEN assay
- Format: functional, cell-based
- settings: read-out: EC50
pEC50: −log10 of the molar value. Starred links: 1 amine or outer side, 2 acyl side, 3 side chain; linkers in the order of their positions; H or OH if unused. Positions of bridges follow the written chain, without caps; N, C: chain ends. Non-standard residues stand in square brackets, D forms with d. Residues, ends and D or L forms follow the SMILES beside them. *: point of attachment. Arg(Nω-CO) = N/C(=N\C(=O)[*:3])NCCC[C@H](N[*:1])C(=O)[*:2]; Ethylenediamine = C(CN[*:2])N[*:1]; Propionyl = CCC(=O)*

compound	pEC50
CC(C)C[C@H](NC(=O)[C@@H]1CCCNC(=N)NC(=O)NCCCCNC(=O)CCC(=O)N[C@@H](CCCNC(=N)N)C(=O)N[C@@H](Cc2ccc(O)cc2)C(=O)N1)C(=O)N[C@@H](CCCNC(=N)N)C(=O)N[C@@H](Cc1ccc(O)cc1)C(N)=O	9.77
CCC(=O)N[C@H]1CCC(=O)NCCNC(=O)/N=C(\N)NCCC[C@@H](C(=O)N[C@@H](CC(C)C)C(=O)N[C@@H](CCCNC(=N)N)C(=O)N[C@@H](Cc2ccc(O)cc2)C(N)=O)NC(=O)[C@H](Cc2ccc(O)cc2)NC(=O)[C@H](CCCNC(=N)N)NC1=O (Propionyl-ERY[Arg(Nω-CO)]LRY-NH2; linker 1-4 via Ethylenediamine)	9.39
CCC(=O)N[C@@H]1CC(=O)NCCCCNC(=O)/N=C(\N)NCCC[C@@H](C(=O)N[C@@H](CC(C)C)C(=O)N[C@@H](CCCNC(=N)N)C(=O)N[C@@H](Cc2ccc(O)cc2)C(N)=O)NC(=O)[C@H](Cc2ccc(O)cc2)NC(=O)[C@H](CCCNC(=N)N)NC1=O	9.96
